- Tested on: RnH9c2 cells
- Assay protocol: Trypanosoma cruzi intracellular assay (Assay 2), host cell cytotoxicity
- Type: cell-based
- Conditions: rat, H9C2 cardiomyocytes infected with Trypanosoma cruzi, 72 h incubation, read-out: cytotoxicity against RnH9c2 cells, pEC50 (converted)
Attribute measured: EC50 at 72 h (µM)
Express your answer in µM, writing the number without its unit.

Field: example entries. Status: answers known.
- Molecule: "O=C(Nc1ccc(F)c(-c2ccn3c(-c4ccccn4)cnc3n2)c1)N1CCCC1 [Example 26]"
  Unit text: "µM"
  EC50 at 72 h: 39.8
- Molecule: "Cc1cccc(-c2cnc3nc(-c4cc(NC(=O)N5CCCC5)ccc4F)ccn23)n1 [Example 37]"
  Unit text: "µM"
  EC50 at 72 h: 25.1
- Molecule: "CC(C)Cc1cnc2nc(-c3cc(NC(=O)N4CCCC4)ccc3F)ccn12 [Example 17]"
  Unit text: "µM"
  EC50 at 72 h: 5.01
- Molecule: "COc1cccc(-c2cnc3nc(-c4cc(NC(=O)N5CCCC5)ccc4F)ccn23)n1.Cl [Example 28]"
  Unit text: "µM"
  EC50 at 72 h: 7.94
- Molecule: "O=C(Nc1ccc(F)c(-c2ccn3c(C4CCOCC4)cnc3n2)c1)N1CCCC1 [Example 19]"
  Unit text: "µM"
  EC50 at 72 h: 39.8

# next molecule below
**Q:** Name the recorded EC50 at 72 h of the molecule listed here: O=C(Nc1ccc(F)c(-c2cnn3c(-c4ccccc4)cnc3n2)c1)N1CCCC1 [Example 7]
**A:** 20
